method summary: Visual inspection of aqueous iron bisglycinate with added compound (Example 3)
Format: physicochemical
test conditions: compound added to aqueous iron bisglycinate, compound to iron content about 1.8:1 by weight

{"columns": ["molecule", "VISUAL"],
 "data": [
  ["O=C1O[C@H]([C@@H](O)CO)C(O)=C1O", "no precipitation"],
  ["O=C(O)CC(O)C(=O)O (stereo not shown)", "no precipitation"],
  ["CC(O)C(=O)O (stereo not shown)", "no precipitation"]
]}

---

method summary: Filter paper ring characterization of aqueous iron bisglycinate (Example 3)
Type: physicochemical
test conditions: compound added to aqueous iron bisglycinate, about 1.8:1 by weight to iron; filter paper after drying
assay endpoint: RING APPEARANCE

{"columns": ["compound", "assay endpoint", "data value"],
 "data": [
  ["O=C(O)CC(O)C(=O)O (stereo not shown)", "RING APPEARANCE", "dark waterfront ring"],
  ["CC(O)C(=O)O (stereo not shown)", "RING APPEARANCE", "dark waterfront ring"],
  ["O=C1O[C@H]([C@@H](O)CO)C(O)=C1O", "RING APPEARANCE", "dark waterfront ring"]
]}

---

method summary: pH of hydrated iron proteinate with or without added compound (Example 4)
Format: physicochemical
test conditions: compound added to iron proteinate solution, compound to iron content about 1:1 by weight
Below, each entry is listed alongside its reported pH.

{"columns": ["molecule", "pH"],
 "data": [
  ["CC(O)C(=O)O (stereo not shown)", 1.0],
  ["O=C1O[C@H]([C@@H](O)CO)C(O)=C1O", 4.5],
  ["O=C(O)CC(O)(CC(=O)O)C(=O)O", 1.5],
  ["CC(=O)O", 3.0],
  ["OC[C@H]1O[C@@](CO)(O[C@H]2O[C@H](CO)[C@@H](O)[C@H](O)[C@H]2O)[C@@H](O)[C@@H]1O", 7.0],
  ["O=C(O)CC(O)C(=O)O (stereo not shown)", 2.0],
  ["O=C(O)CCC(=O)O", 2.0]
]}

The reported measurements were obtained from patent US6716814B2.
